System: S. aureus ATCC 29213
TEST METHOD NOTES: Antimicrobial activity, tube dilution method
Assay type: cell-based, Staphylococcus aureus
RUN PARAMETERS: 24 h at 37 °C, four repeated experiments
OBSERVABLE: MIC

Consider the reported MIC for these compounds:
>>> print(df.to_string())
                                   compound  measurement
0  C[N+](C)(C)CCO.NC(=O)CC[C@H](N)C(=O)[O-] [[Ch][Gln]]       125 mM
1  C[C@H](N)C(=O)[O-].C[N+](C)(C)CCO [[Ch][Ala]]       188 mM
2  C[N+](C)(C)CCO.[Cl-] [[Ch][Cl], cholinium chloride, reference compound]      >750 mM
3  C[N+](C)(C)CCO.N[C@@H](Cc1ccccc1)C(=O)[O-] [[Ch][Phe]]      62.5 mM
4  C[N+](C)(C)CCO.NC(=O)C[C@H](N)C(=O)[O-] [[Ch][Asn]]       188 mM

Could you share what MIC was measured for CC(C)C[C@H](N)C(=O)[O-].C[N+](C)(C)CCO [[Ch][Leu]] , tested on S. aureus ATCC 29213?
93.8 mM

Could you share what MIC was measured for C[N+](C)(C)CCO.C[N+](C)(C)CCO.N[C@@H](CC(=O)[O-])C(=O)[O-] [[Ch][Asp]] , tested on S. aureus ATCC 29213?
750 mM

Could you share what MIC was measured for C[C@@H](O)[C@H](N)C(=O)[O-].C[N+](C)(C)CCO [[Ch][Thr]] , tested on S. aureus ATCC 29213?
125 mM

Could you share what MIC was measured for CC(=O)[O-].C[N+](C)(C)CCO [[Ch][AcO], Cholinium acetate, reference compound] , tested on S. aureus ATCC 29213?
500 mM

----------
MBC values for the molecules below.
System: S. aureus ATCC 29213
TEST METHOD NOTES: Antimicrobial activity, tube dilution method
Type: cell-based, Staphylococcus aureus
RUN PARAMETERS: kills 99.9% or more, four repeated experiments
Procedure: Antimicrobial activity was measured via the tube dilution method as described previously. Briefly, E. coli, S. aureus, S. enteritidis and L. monocytogenes were cultured in Mueller-Hinton broth for 24 h at 37 °C. A microorganism suspension of 10^6 cfu mL^−1 (cfu, colony forming units) was prepared from each culture. […] Growth of the microorganisms was determined visually after incubation for 24 h at 37 °C. […]
Hi! Could you send only the number? It should be in mM, unit omitted.

Can you share its MBC? I mean this molecule: C[N+](C)(C)CCO.NC(=O)CC[C@H](N)C(=O)[O-] [[Ch][Gln]]
188

----------
Tested on: E. coli ATCC 8739
TEST METHOD NOTES: Antimicrobial activity, tube dilution method
Assay type: cell-based, Escherichia coli
RUN PARAMETERS: 24 h at 37 °C, four repeated experiments
OBSERVABLE: MIC

Consider the reported MIC for these compounds:
In [3]: df
Out[3]:
                                   compound  measurement
0  C[N+](C)(C)CCO.N[C@@H](CCC(=O)O)C(=O)[O-] [[Ch][Glu]]       500 mM
1  C[C@@H](O)[C@H](N)C(=O)[O-].C[N+](C)(C)CCO [[Ch][Thr]]      31.3 mM

Can you share its MIC? I mean this compound: CC(C)C[C@H](N)C(=O)[O-].C[N+](C)(C)CCO [[Ch][Leu]]
46.9 mM

Can you share its MIC? I mean this compound: C[N+](C)(C)CCO.[Cl-] [[Ch][Cl], cholinium chloride, reference compound]
>750 mM

----------
MIC values for the molecules below.
System: E. coli ATCC 8739
TEST METHOD NOTES: Antimicrobial activity, tube dilution method
Assay type: cell-based, Escherichia coli
RUN PARAMETERS: 24 h at 37 °C, four repeated experiments
Hi! Could you send only the number? It should be in mM, unit omitted.

Can you share its MIC? I mean this molecule: C[N+](C)(C)CCO.NCC(=O)[O-] [[Ch][Gly]]
125

Can you share its MIC? I mean this molecule: C[N+](C)(C)CCO.NC(=O)CC[C@H](N)C(=O)[O-] [[Ch][Gln]]
125

Can you share its MIC? I mean this molecule: C[N+](C)(C)CCO.N[C@@H](CO)C(=O)[O-] [[Ch][Ser]]
31.3

----------
MIC values for the compounds below.
Test system: S. aureus ATCC 29213
TEST METHOD NOTES: Antimicrobial activity, tube dilution method
Format: cell-based, Staphylococcus aureus
RUN PARAMETERS: 24 h at 37 °C, four repeated experiments
Hi! Could you send only the number? It should be in mM, unit omitted.

Consider the reported MIC for these compounds:
>>> print(df.to_string())
                                   compound  observable  measurement_unit  measurement
0  C[N+](C)(C)CCO.N=C(N)NCCC[C@H](N)C(=O)[O-] [[Ch][Arg]]         MIC                mM         93.8
1  C[N+](C)(C)CCO.NCCCC[C@H](N)C(=O)[O-] [[Ch][Lys]]         MIC                mM         62.5
2    C[N+](C)(C)CCO.NCC(=O)[O-] [[Ch][Gly]]         MIC                mM          250
3  C[N+](C)(C)CCO.N[C@@H](Cc1c[nH]c2ccccc12)C(=O)[O-] [[Ch][Trp]]         MIC                mM         46.9
4  CSCC[C@H](N)C(=O)[O-].C[N+](C)(C)CCO [[Ch][Met]]         MIC                mM          125
5  C[N+](C)(C)CCO.N[C@@H](CCC(=O)O)C(=O)[O-] [[Ch][Glu]]         MIC                mM          750
6  CCC(C)C(N)C(=O)[O-].C[N+](C)(C)CCO (centres unmarked) [[Ch][Ile]]         MIC                mM         93.8
7  C[N+](C)(C)CCO.N[C@@H](Cc1cnc[nH]1)C(=O)[O-] [[Ch][His]]         MIC                mM         93.8

Can you share its MIC? I mean this compound: CC(C)[C@H](N)C(=O)O [[Ch][Val]]
93.8

Can you share its MIC? I mean this compound: C[N+](C)(C)CCO.O=C([O-])[C@@H]1CCCN1 [[Ch][Pro]]
93.8

Can you share its MIC? I mean this compound: C[N+](C)(C)CCO.N[C@@H](CO)C(=O)[O-] [[Ch][Ser]]
125

----------
Test system: S. aureus ATCC 29213
TEST METHOD NOTES: Antimicrobial activity, tube dilution method
Assay type: cell-based, Staphylococcus aureus
RUN PARAMETERS: kills 99.9% or more, four repeated experiments
MBC values for the molecules below.
Hi! Could you send only the number? It should be in mM, unit omitted.

Consider the reported MBC for these molecules:
                                   molecule  observable  measurement
0  C[N+](C)(C)CCO.N[C@@H](CCC(=O)O)C(=O)[O-] [[Ch][Glu]]         MBC          750
1  CSCC[C@H](N)C(=O)[O-].C[N+](C)(C)CCO [[Ch][Met]]         MBC          250
2  CC(C)C[C@H](N)C(=O)[O-].C[N+](C)(C)CCO [[Ch][Leu]]         MBC          125
3  C[C@H](N)C(=O)[O-].C[N+](C)(C)CCO [[Ch][Ala]]         MBC          250
4  C[N+](C)(C)CCO.NCCCC[C@H](N)C(=O)[O-] [[Ch][Lys]]         MBC         93.8
5  CCC(C)C(N)C(=O)[O-].C[N+](C)(C)CCO (stereo not shown) [[Ch][Ile]]         MBC          125

Can you share its MBC? I mean this molecule: C[N+](C)(C)CCO.C[N+](C)(C)CCO.N[C@@H](CC(=O)[O-])C(=O)[O-] [[Ch][Asp]]
750

Can you share its MBC? I mean this molecule: C[N+](C)(C)CCO.N[C@@H](Cc1ccccc1)C(=O)[O-] [[Ch][Phe]]
93.8

Can you share its MBC? I mean this molecule: C[N+](C)(C)CCO.NCC(=O)[O-] [[Ch][Gly]]
500

Can you share its MBC? I mean this molecule: CC(C)[C@H](N)C(=O)O [[Ch][Val]]
125

Can you share its MBC? I mean this molecule: C[N+](C)(C)CCO.N=C(N)NCCC[C@H](N)C(=O)[O-] [[Ch][Arg]]
125

Can you share its MBC? I mean this molecule: C[N+](C)(C)CCO.N[C@@H](CO)C(=O)[O-] [[Ch][Ser]]
250

Can you share its MBC? I mean this molecule: CC(=O)[O-].C[N+](C)(C)CCO [[Ch][AcO], Cholinium acetate, reference compound]
750

Can you share its MBC? I mean this molecule: C[C@@H](O)[C@H](N)C(=O)[O-].C[N+](C)(C)CCO [[Ch][Thr]]
250

Can you share its MBC? I mean this molecule: C[N+](C)(C)CCO.N[C@@H](Cc1c[nH]c2ccccc12)C(=O)[O-] [[Ch][Trp]]
62.5

Can you share its MBC? I mean this molecule: C[N+](C)(C)CCO.N[C@@H](Cc1cnc[nH]1)C(=O)[O-] [[Ch][His]]
125

Can you share its MBC? I mean this molecule: C[N+](C)(C)CCO.O=C([O-])[C@@H]1CCCN1 [[Ch][Pro]]
125

Can you share its MBC? I mean this molecule: C[N+](C)(C)CCO.NC(=O)C[C@H](N)C(=O)[O-] [[Ch][Asn]]
250
